Where do these numbers come from? They come from BigSolDB 2.1.

conditions: in ethyl acetate, 288.15 K
measured metric: solubility (mole fraction)
Answers are plain numbers.

solubility (mole fraction) in this record for CNC(=O)c1cc(Oc2ccc(N)cc2)ccn1 : 0.0793
